Source listed as PubChem BioAssay (Tox21).

target_entity: Acetylcholinesterase (Homo sapiens)
assay_overview: Acetylcholinesterase (AChE) small molecule antagonists: enzyme-based qHTS assay (AID 1347397); further: nearly all actives have a fitted effect of over 55% in size
protocol_conditions: AChE enzyme activity inhibition; series mostly up to 115 µM
Calls of active or inactive are those of the source. The call rests on the fitted dose curve.
The reply should be one of these categories: TRUE for active, FALSE for inactive

A selection of reference data follows.
Problem: Any idea what this test logged for O=C1C(I)=CC(=C(c2cc(I)c(O)c(I)c2)c2ccccc2C(=O)O)C=C1I ?
Solution: TRUE

Problem: Identify the outcome logged in this assay for the molecule shown: Cc1c(Cl)cccc1Cl
Solution: FALSE

Problem: What outcome does the record of this test show for O=C(OCc1ccccc1)c1ccc(O)cc1 ?
Solution: FALSE

Problem: Just curious, what result did C=CC(C)(O)CC/C=C(\C)CC (centres undefined) get here?
Solution: FALSE

Problem: Please state the recorded outcome for this molecule: c1ccc2ncccc2c1
Solution: FALSE

Problem: I would be grateful if you could indicate the recorded call for CC(C)(C)c1cc(O)c(C(C)(C)C)cc1O .
Solution: FALSE

Problem: Please share the test call associated with CC(=O)OC/C=C(\C)CC/C=C(\C)CCC=C(C)C .
Solution: FALSE

Problem: Check the results log: what was the call for CCCCC(=O)N(C)C ?
Solution: FALSE

Now for a further molecule.
Problem: How did this test come out for CCOc1cc([N+](=O)[O-])c(OCC)cc1N1CCOCC1 ?
Solution: FALSE
